Origin of the recorded values: ChEMBL document CHEMBL5724696

System: U2OS
Assay: Here: values are normalized to the negative (DMSO; defined as 0% autophagy induction) and positive (250nM Torin1; mTOR inhibitor; defined as maximal inducer of autophagy = 100%) control compounds and represented as % of autophagy induction. […] The impact of autophagy induction on cells is complex and depends on the affected target. As such, the magnitude of a phenotype may not be equally mirrored in the %-value of autophagy induction and vice versa. The dynamics of the induction may indicate the mode of activation: e.g. activation via phosphorylation or a signaling cascade may occur fast, while activation via transcription factors may take considerably longer. […] Of note, treatment concentrations may be sub-optimal for specific compounds, leading to false negative annotations.
Assay type: functional, Homo sapiens
Conditions: Compound Concentration 2 uM, Timepoint 60 hours, Culturing Media DMEM, 1 % Penicillin/Streptomycin, 10% Fetal bovin serum Add-On: No, Screening Media Control DMEM, Screening Media Samples DMEM
REPORTED_ENDPOINT: autophagy induction (%)
Numbers only, in %.

Cc1nc(C(=O)N2CCC[C@H]2Cc2nnc(-c3ccccc3)o2)c(-c2ccccc2F)s1
-2.832
Cc1nnn(-c2ccc(-c3ccc(C4(C(=O)O)CC4)cc3)cc2)c1NC(=O)O[C@H](C)c1ccccc1
-0.4752
CNc1nc(NCc2ccc(NS(C)(=O)=O)cc2Cl)cc(-c2ccccn2)n1
0.9042
O=C(Nc1ccc(Cl)cc1)Nc1cccc(-c2cccc(N3CCCC3)n2)c1
-2.799
N#Cc1cccc(C(=O)Nc2cc(-c3ccccc3)nn2-c2ccccc2)c1
-2.332
COc1ccnc(N2CCC3(CCCN(Cc4c[nH]c5ccccc45)C3=O)CC2)n1
-3.421
COc1cc(-n2cnc3cc(-c4ccc(Cl)cc4)sc3c2=O)ccc1OCCN1CCCC1
114.522
CC(C)NC(=O)c1ccc(C#Cc2ccncc2)cn1
-1.746
CN1CCCC(n2nc(Cc3ccc(Cl)cc3)c3ccccc3c2=O)CC1.Cl (stereo unspecified) [AZELASTINE HYDROCHLORIDE]
-3.3303
C[C@]1(C(=O)N(CCCC(=O)O)Cc2cccc(Cl)c2)CCN1C(=O)c1csc2ccccc12
-1.363

Proceed to the following item.
stdin: Which value of autophagy induction has been reported for `COc1ccc(NS(=O)(=O)c2sc3ccc(Cl)cc3c2C)cc1N1CCNCC1.Cl` in the records?
stdout: -2.731

###

Tested on: U2OS
Assay: Here: values are normalized to the negative (DMSO; defined as 0% autophagy induction) and positive (250nM Torin1; mTOR inhibitor; defined as maximal inducer of autophagy = 100%) control compounds and represented as % of autophagy induction. […] The impact of autophagy induction on cells is complex and depends on the affected target. As such, the magnitude of a phenotype may not be equally mirrored in the %-value of autophagy induction and vice versa. The dynamics of the induction may indicate the mode of activation: e.g. activation via phosphorylation or a signaling cascade may occur fast, while activation via transcription factors may take considerably longer. […] Of note, treatment concentrations may be sub-optimal for specific compounds, leading to false negative annotations.
Format: functional, Homo sapiens
Settings: Compound Concentration 2 uM, Timepoint 60 hours, Culturing Media DMEM, 1 % Penicillin/Streptomycin, 10% Fetal bovin serum Add-On: No, Screening Media Control DMEM, Screening Media Samples DMEM
Please respond with reported autophagy induction for every item in the list.
Answers are plain numbers, in %.

Cc1c(P(=S)(c2ccccc2)c2ccccc2)n2ccccc2[n+]1C/C=C/c1ccccc1.[Br-]
-2.536
COc1ccccc1CN[C@H]1C2CCN(CC2)[C@H]1C(c1ccccc1)c1ccccc1 [CP-96345]
-5.938
Cl.Clc1ccc(CCCOCCCN2CCCCC2)cc1 [PITOLISANT HYDROCHLORIDE]
-1.476
N[C@H](C(=O)O)c1ccc(C(=O)O)c(C(=O)O)c1
114.31
CN(C(=O)Cc1ccc(Cl)c(Cl)c1)C(CN1CCCC1)c1cccc(OCC(=O)O)c1.Cl (stereo not given)
-2.0456

List reported autophagy induction for each of these compounds:
1. COc1ccc(/C=C/CCCCOc2ccc(C(=O)c3cccc(C(=O)O)c3)cc2CCC(=O)O)cc1
2. C/C(=N\NC(=O)[C@@H]1C(=O)NC[C@H]1c1ccccc1)c1cccc(Br)c1
3. Cc1cc(NC(=O)Nc2ccc(N(C)C)cc2)c2cc(F)cc(F)c2n1
4. Cc1c(F)cccc1NC(=O)Nc1ccc(Cl)c(S(=O)(=O)[C@H]2CCCNC2)c1O [DANIRIXIN]
5. FC(F)(F)c1c(N2CCC(c3ccccc3)CC2)ccn2c(CC3CC3)nnc12
6. O=C1N/C(=N/c2ccccc2F)S/C1=C\c1ccc(C(=O)O)cc1
7. CC(C)Oc1ccccc1C(=O)Nc1ccccc1C(=O)Nc1cccc(S(=O)(=O)C(F)(F)F)c1

stdout:
1. 114.413
2. -2.754
3. 114.2
4. -1.731
5. -2.478
6. 0.3402
7. 113.873

List reported autophagy induction for each of these compounds:
1. O=C(O)CC1CCC2(CC1)CCN(c1cc(OC(F)(F)F)ccc1Cl)CC2
2. CCc1ccc(OCc2ccccc2C(=O)Nc2ccc3nc(C)cc(N)c3c2)cc1.Cl
3. CC(C)NCC(O)c1ccc(N)c(C#N)c1 (stereo not given) [CIMATEROL]
4. Cc1c(OCc2cccc(-c3ccc(C(=O)O)cc3)c2)cc2c(c1C)C(=O)C(C1CCCC1)C2 (stereo not given)

stdout:
0.09301
113.026
0.1358
114.283

List reported autophagy induction for each of these compounds:
1. Cl.Cl.Cl.c1ccc(N2CCN(Cc3nc4ccccc4[nH]3)CC2)nc1
2. Cc1cc([C@@H](C)Nc2cccc(-c3cc(C)c(C(=O)N[C@@H](C)C(=O)O)c(C)c3)c2)ccc1Cl
3. CSc1ccc(C(=O)N[C@@H]2CCCC[C@@H]2NC(=O)CNC(=O)c2cc(C(F)(F)F)ccc2NC(=O)NC(C)C)cc1

stdout:
1. -2193.41
2. 114.309
3. 0.6149

List reported autophagy induction for each of these compounds:
1. Cc1cc(C)cc(C(=O)N(C)[C@H](Cc2ccc(-c3ccccc3)cc2)C(=O)N[C@@H](Cc2c[nH]c3ccccc23)C(=O)O)c1
2. CCCCCNC(=O)NS(=O)(=O)c1cc([N+](=O)[O-])ccc1NC1CCCCC1
3. COc1ccc(C2(O)OC(=O)C(c3ccc4c(c3)OCO4)=C2Cc2cc(OC)c(OC)c(OC)c2)cc1 (stereo not given) [PD-156707]
4. C[C@@H](NCCc1ccc(O)cc1)[C@@H](O)c1ccc(O)cc1.Cl (relative stereo)
5. Cc1cn2cc(CC(=O)N3CCC4(CC3)CN(Cc3ccc(-n5nccn5)cc3Cl)C4)nc2s1
6. CCCNS(=O)(=O)Nc1ncnc(OCCOc2ncc(Br)cn2)c1-c1ccc(Br)cc1

stdout:
[-0.5825, 114.254, -1.242, -0.1418, -1.336, -0.5161]

List reported autophagy induction for each of these compounds:
1. Cc1c(C2=CCN(C(=O)N(C)C(C)C)CC2)nnn1-c1cccnc1F
2. N#Cc1c(N)nc(SCC(N)=O)c(C#N)c1-c1ccc(OCC2CC2)cc1
3. CCCCC#Cc1nc(NC)c2ncn([C@@H]3O[C@H](CO)[C@@H](O)[C@H]3O)c2n1
4. C[C@H](Cc1cc2c(c(C(N)=O)c1)N(CCCO)CC2)NCCOc1ccccc1OCC(F)(F)F [SILODOSIN]
5. Cc1csc(NC(=O)c2cc(F)cc(Oc3cncnc3)c2)n1
6. COc1ccc(S(=O)(=O)N2c3ccc(Cl)cc3[C@](O)(c3ccccc3Cl)[C@@H]2C(=O)N2CCC[C@H]2C(N)=O)cc1OC [RELCOVAPTAN]
7. CCCCN(CCCC)C(=O)CN1C[C@@H](c2ccc3c(c2)OCO3)[C@H](C(=O)O)[C@H]1c1ccc(OC)cc1
8. CC1=C2C[C@H]3[C@@H](CC=C4C[C@@H](O)CC[C@@]43C)[C@@H]2CC[C@]12O[C@@H]1C[C@H](C)CN[C@H]1[C@H]2C [CYCLOPAMINE]

stdout:
1: -1.565; 2: -0.2456; 3: -1.323; 4: -1.816; 5: -1.843; 6: -1.266; 7: -1.949; 8: -2.064

List reported autophagy induction for each of these compounds:
1. COc1cccc(-c2c(C)n(Cc3c(F)cccc3C(F)(F)F)c(=O)n(C[C@H](NCCCC(=O)[O-])c3ccccc3)c2=O)c1F.[Na+] [ELAGOLIX SODIUM]
2. O=C1O[C@]2(CC[C@H](C(=O)Nc3ccn(-c4ccccc4F)n3)CC2)c2cnccc21 [MK-0557]

stdout:
114.391
114.407
